# experimental.protocol: Particle size of aqueous dispersions by dynamic light scattering
# Assay type: physicochemical
# condition.description: Table 14, microblend with Pluronic P123:Soprophor BSU 1:1, insecticide 4.5 mg/ml, after 2 hours, Nanotrac 250
# Protocol: The suspensions were shaken for 40 h at room temperature followed by centrifugation for 10 min at 13,000 rpm. The concentration of Bifenthrin in the supernatants was determined by UV-spectroscopy. […] These solutions were used to obtain a calibration curve by measuring an absorbance at 260 nm using Perkin-Elmer Lambda 25 spectrophotometer. […]
quantity: Particle size (nm)

INSERT INTO results (compound, reported_value) VALUES
  ('FC(F)(F)c1ccc(OCCCOc2c(Cl)cc(OCC=C(Cl)Cl)cc2Cl)nc1 [Pyridalyl]', 14),
  ('CC1(C)C(C=C(Cl)Cl)C1C(=O)OC(C#N)c1cccc(Oc2ccccc2)c1 (centres unmarked) [Cypermethrin]', 14),
  ('N#Cc1nn(-c2c(Cl)cc(C(F)(F)F)cc2Cl)c(N)c1[S+]([O-])C(F)(F)F (centres unmarked) [Fipronil]', 13),
  ('Cc1c(COC(=O)[C@@H]2[C@H](/C=C(\Cl)C(F)(F)F)C2(C)C)cccc1-c1ccccc1 (racemic) [Bifenthrin]', 14),
  ('CCCSP(=O)(OCC)Oc1ccc(Br)cc1Cl (centres unmarked) [Profenofos]', 13);

###

# experimental.protocol: log P measured by the procedure of Donovan and Pescatore, internally standardized with toluene and triphenylene
# Format: physicochemical
# condition.description: pH 2; read-out: logP, Average
quantity: chromatographic logP

INSERT INTO measurements (structure_notation, reported_value) VALUES
  ('COP(=S)(OC)Oc1c(Cl)cc(C)cc1Cl', 4.42);

###

# experimental.protocol: log P measured by the procedure of Donovan and Pescatore, internally standardized with toluene and triphenylene
# Format: physicochemical
# condition.description: pH 7, logP, Average
chromatographic logP values for the molecules below.
quantity: chromatographic logP

INSERT INTO measurements (molecule, quantity, reported_value) VALUES
  ('CCCCOCN(C(=O)CCl)c1c(CC)cccc1CC [Butachlor]', 'chromatographic logP', 4.15),
  ('OC(Cn1cncn1)(c1ccc(F)cc1)c1ccccc1F (stereo not shown) [Flutriafol]', 'chromatographic logP', 2.04),
  ('CCCCOC(=O)C(C)Oc1ccc(Oc2ccc(C(F)(F)F)cn2)cc1 (stereo not shown) [Fluazifop-butyl]', 'chromatographic logP', 4.42),
  ('CCCCC(O)(Cn1cncn1)c1ccc(Cl)cc1Cl (stereo not shown) [Hexaconazole]', 'chromatographic logP', 3.31);

###

chromatographic logP values for the compounds below.
# experimental.protocol: log P measured by the procedure of Donovan and Pescatore, internally standardized with toluene and triphenylene
# Type: physicochemical
# condition.description: pH 7, pH = 7; based on logP assigned to toluene 2.605 and triphenylene 6.266; read-out: logP, Average
# Method: Compositions of herbicides were prepared using melts of mixtures of nonionic block copolymer and ethoxylated surfactants. Specifically, tristyrylphenol etoxylate (Soprophor BSU, Rhodia) was used in combination with Pluronic P123 (PEO20-PPO69-PEO20). The list of the herbicides and corresponding log P values (the log P values were measured according procedure described by Donovan and Pescatore, J Chromatography A 2002, 952, 47-61) are presented in Table 22. […]
quantity: chromatographic logP

INSERT INTO assay_data (compound, quantity, reported_value) VALUES
  ('CCOC(=O)C(Cl)Cc1cc(-n2nc(C)n(C(F)F)c2=O)c(F)cc1Cl (centres unmarked) [Carfentrazone-ethyl]', 'chromatographic logP', 4.02),
  ('COC(=O)N(OC)c1ccccc1COc1ccn(-c2ccc(Cl)cc2)n1 [Pyraclostrobin]', 'chromatographic logP', 4.49),
  ('CCCCCCCC(=O)Oc1c(I)cc(C#N)cc1I [Ioxynil Octanoate]', 'chromatographic logP', 5.6),
  ('O=[N+]([O-])c1cc(C(F)(F)F)c(Cl)c([N+](=O)[O-])c1Nc1ncc(C(F)(F)F)cc1Cl [Fluazinam]', 'chromatographic logP', 4.72),
  ('CCSC(C)CC1CC(=O)C(/C(CC)=N/OC/C=C/Cl)=C(O)C1 (centres unmarked) [Clethodim]', 'chromatographic logP', 0.813);

From: patent US20090137667A1
